# target system: Polyunsaturated fatty acid 5-lipoxygenase (Homo sapiens)
# test summary: Inhibition of human recombinant 5-LO assessed as product formation at 3 uM by cell-free assay relative to control; values are per cent of control
parameter measured: residual activity
Mention the unit after the number when you answer.

Param readout= residual activity; system= Polyunsaturated fatty acid 5-lipoxygenase (Homo sapiens); entry= O=C1Nc2c(Br)cccc2/C1=C1/Nc2ccccc2C1=O ; returns value.
85.4%

Next compound: O=Nc1c(-c2c(O)[nH]c3ccccc23)[nH]c2ccccc12 [INDIRUBIN-3-MONOXIME]
78.4%

Next compound: CC(=O)O/N=C1/C(=C2/C(=O)Nc3c(Br)cccc32)Nc2ccccc21
79.2%
